TESTED TARGET: CYP2C8 (Homo sapiens, UniProt P10632)
Sequence (P10632 1-490): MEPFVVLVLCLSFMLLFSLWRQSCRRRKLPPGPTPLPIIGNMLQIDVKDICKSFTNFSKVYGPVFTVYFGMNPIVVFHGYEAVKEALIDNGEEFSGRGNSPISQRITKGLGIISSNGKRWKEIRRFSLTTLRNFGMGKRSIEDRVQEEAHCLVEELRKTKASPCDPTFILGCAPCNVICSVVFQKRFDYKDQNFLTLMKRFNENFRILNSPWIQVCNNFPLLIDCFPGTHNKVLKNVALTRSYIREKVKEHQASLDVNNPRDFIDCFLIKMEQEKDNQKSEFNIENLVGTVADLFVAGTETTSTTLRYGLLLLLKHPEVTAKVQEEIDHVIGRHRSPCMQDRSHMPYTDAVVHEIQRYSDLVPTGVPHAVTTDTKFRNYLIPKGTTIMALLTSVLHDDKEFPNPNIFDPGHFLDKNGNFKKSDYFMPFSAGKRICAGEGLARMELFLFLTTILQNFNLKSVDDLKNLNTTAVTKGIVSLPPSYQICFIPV
PROTOCOL DETAILS: CYP2C8 amodiaquine N-deethylase inhibition in ultrapooled human liver microsomes
SETUP CONDITIONS: human, liver microsomes, pH 7.4, probe amodiaquine
ENDPOINT NAME: IC50 shift at 15 min
No unit in the answer, only the number.

So, CCCCCn1nc(C(=O)N[C@H](C(N)=O)C(C)C)c2ccccc21 ? Its IC50 shift at 15 min was 1.1
